Test system: U2OS
Test: cell viability relative to DMSO; higher = less toxic
Conditions: 72 h; 10 nM
Provide the reported cell viability of each item.
Give the quantity in %, number only.

Item: `CC(C)(C)/[N+]([O-])=C/c1ccc(S(=O)(=O)O)cc1S(=O)(=O)O` | cell viability: 100

The recorded cell viability for COCC1(CO)C(=O)C2CCN1CC2 (centres undefined) is 94.9

Record `N#Cc1ccc2[nH]c(O)c(-c3ccc(CN4CCOCC4)cn3)c2c1` , field cell viability: 105

Memo: `Cc1cc(Nc2nc(N[C@@H](C)c3ccc(F)cc3)c(C#N)cc2F)n[nH]1` , reported cell viability: 101

Sure, the documented cell viability for `CN[C@H](CC(C)C)C(=O)N[C@H]1C(=O)N[C@@H](CC(N)=O)C(=O)N[C@H]2C(=O)N[C@H]3C(=O)N[C@H](C(=O)N[C@H](C(=O)O)c4cc(O)cc(O)c4-c4cc3ccc4O)[C@H](O[C@H]3C[C@](C)(N)[C@@H](O)[C@H](C)O3)c3ccc(c(Cl)c3)Oc3cc2cc(c3O[C@@H]2O[C@H](CO)[C@@H](O)[C@H](O)[C@H]2O[C@H]2C[C@](C)(NCc3ccc(-c4ccc(Cl)cc4)cc3)[C@@H](O)[C@H](C)O2)Oc2ccc(cc2Cl)[C@H]1O` is 100

// cell viability lookup, compound = O[C@@H]1CCCC[C@H]1N1CCC(c2ccccc2)CC1 (racemic) , result: 96.5

According to the records, this compound `CNC(=O)c1ccccc1Sc1ccc2c(/C=C/c3ccccn3)n[nH]c2c1` displays cell viability of 104

Please fill in: cell viability reported for `COc1ccc(CNC(=O)/C=C/c2ccc3[nH]cc(CCN(C)C)c3c2)cc1` = 97.4

The recorded cell viability for entry `CN1CCN(c2ccc3[nH]c(-c4ccc5[nH]c(-c6ccc(O)cc6)nc5c4)nc3c2)CC1` equals 97.2

What the record says about COc1ccc(C(=O)CC2(O)C(=O)Nc3c(Cl)ccc(Cl)c32)cc1 (centres undefined) : cell viability is 97.8

Lab note: measured cell viability of `CCc1cccc(CC)c1NC(=O)CN(CC(=O)O)CC(=O)O` was 97.2

Value of cell viability reported for the compound `O=C1c2ccccc2-c2c(NCCc3ccccc3)c(=O)[nH]c3cccc1c23` is 102

Data point: `FC(F)(F)c1ccccc1-n1ccnc1` ; cell viability = 97.8

Reported cell viability of Cc1cccc(C(=O)O)c1O [hydroxytoluic-acid] : 99.3

###

So I've got a bunch of compounds here, and I need their cell viability values.
System: Calu-3
Assay: cell viability relative to DMSO; higher = less toxic
Conditions: 72 h; 10 nM
Answer format: numeric, % implied, no suffix.

Form field cell viability, entry CS(=O)(=O)Oc1ccc2c(NC(N)=O)c(C(=O)c3ccc(Cl)cc3Cl)oc2c1 [lirimilast] : 106

Looking up Clc1ccc(CO/N=C(\Cn2ccnc2)c2ccc(Cl)cc2Cl)c(Cl)c1 [oxiconazole] , I found its cell viability recorded as 87.3

Record summary for N[C@@H](Cc1cc(-c2ccc(Cl)cc2Cl)cc(CP(=O)(O)O)c1O)C(=O)O [SDZ-220-040] : reported cell viability = 104

Recorded cell viability (compound COc1cc(F)c(C(C)C)cc1-c1ccc(C(F)(F)F)cc1CN1C(=O)O[C@H](c2cc(C(F)(F)F)cc(C(F)(F)F)c2)[C@@H]1C [anacetrapib] ): 97

# compound `Nc1nc2c(c(N3CCNCC3)n1)CCC1=C2[C@@H]2CCCC[C@@H]2O1` ; its cell viability = 105

compound O=C(CCCCCCC(=O)Nc1ccccc1)NO [vorinostat] , cell viability observed: 96.9

Entry under test: O=[N+]([O-])c1cccc2c(Br)n[nH]c12 [3-bromo-7-nitroindazole] . Its cell viability was 88.4

Record summary for CCCCCCc1ccc(O)cc1O.Nc1c2ccccc2nc2ccccc12 [acrisorcin] : reported cell viability = 88.3

get_value(item= COc1ccc(C[C@H]2NC[C@H](O)[C@H]2OC(C)=O)cc1 [anisomycin] , readout=cell viability) returns 97.9

Documented cell viability of `CN(CCOc1ccc(-c2ccc3c(c2)OCO3)cc1C(C)(C)C)CC(=O)O` : 95.1

Item: NCCCC[C@H](NC(=O)[C@@H]1CCCN1C(=O)[C@@H]1CSSC[C@H](N)C(=O)N[C@@H](Cc2ccc(O)cc2)C(=O)N[C@@H](Cc2ccccc2)C(=O)N[C@@H](CCC(N)=O)C(=O)N[C@@H](CC(N)=O)C(=O)N1)C(=O)NCC(N)=O [lypressin] | cell viability: 98.1

The compound identified as CN1CCN(c2ccc3[nH]c(-c4ccc5[nH]c(-c6ccc(O)cc6)nc5c4)nc3c2)CC1 [pibenzimol] registered its cell viability at 93.8

// recorded cell viability for OC(CN1CCN(c2cccc(Cl)c2)CC1)C(c1ccccc1)c1ccccc1 (stereo unspecified) : 110

For record O=C1NC(=O)/C(=C/c2cccc(C(F)(F)F)c2)S1 [SMI-4a] the listed cell viability is 98.1

cell viability reported for this compound C=CCN1C[C@H](C)N([C@H](c2ccc(C(=O)N(CC)CC)cc2)c2cccc(O)c2)C[C@H]1C [BW-373U86] : 103

Value of measured cell viability for the entry N[C@@H](C(=O)O)[C@@H](OCc1ccccc1)C(=O)O.N[C@H](C(=O)O)[C@H](OCc1ccccc1)C(=O)O [TBOA-(DL)] : 87.8

###

Could you please report measured drug-induced phospholipidosis for the items listed next?
Test system: A549-ACE2
Experiment: drug-induced phospholipidosis relative to tamoxifen; higher = more phospholipidosis
Conditions: 0.3 µM; 24 h
Just the number in %, nothing appended.

Entry `O=C1NC(=O)C(c2cnc3ccccn23)=C1c1cn2c3c(cc(F)cc13)CN(C(=O)N1CCCCC1)CC2` — recorded drug-induced phospholipidosis = -5.51

According to the records, this molecule O=c1[nH]c2ccccc2n1C1CCN(CCCC(c2ccc(F)cc2)c2ccc(F)cc2)CC1 [pimozide] displays drug-induced phospholipidosis of 4.09

Lab note: `C[C@@H](Oc1cc(-n2cnc3ccc(CN4CCN(C)CC4)cc32)sc1C(N)=O)c1ccccc1C(F)(F)F` gave drug-induced phospholipidosis of 14.3

GET /value?item= `CCC(CC)COC(=O)[C@H](C)N[P@](=O)(OC[C@H]1O[C@@](C#N)(c2ccc3c(N)ncnn23)[C@H](O)[C@@H]1O)Oc1ccccc1` &field=drug-induced phospholipidosis returns 1.03

// drug-induced phospholipidosis value for CCCCCCCCNC(C)C(O)c1ccc(SC(C)C)cc1 (stereo unspecified) : 2.27

Recorded drug-induced phospholipidosis (molecule C=C[C@@]1(C)CC(=O)[C@]2(O)[C@@]3(C)[C@@H](O)CCC(C)(C)[C@@H]3[C@H](OC(=O)CCN(C)C)[C@H](OC(C)=O)[C@@]2(C)O1 [colforsin-daproate] ): -0.11

###

Test system: Vero E6
Experiment: cell viability relative to DMSO; higher = less toxic
Conditions: 72 h; 1000 nM
experimentalEndpoint: cell viability (%)
All answers are understood in %, so give the number only.

In plain terms, `CNC(=O)[C@H]1O[C@@H](n2cnc3c(NCc4cccc(I)c4)nc(Cl)nc32)[C@H](O)[C@@H]1O` has a documented cell viability of 98.3

get_value(item= `O=C(/C=C/c1cccnc1)NCCCCC1CCN(C(=O)c2ccccc2)CC1` , readout=cell viability) returns 1.2

// cell viability value for CCOC(=O)CC(=O)N1CCSC1COc1ccccc1OC (centres undefined) : 105

The molecule listed as `CCNCCS(=O)(=O)NC[C@@]1(c2ccccc2)SC(NC(=O)C(C)(C)C)=NN1C(=O)C(C)(C)C` shows cell viability equal to 38.8

For CCC(=O)O[C@]1(C(=O)CCl)[C@@H](C)C[C@H]2[C@@H]3C[C@H](F)C4=CC(=O)C=C[C@]4(C)[C@@]3(F)[C@@H](O)C[C@@]21C [halobetasol-propionate] the molecule record lists cell viability as 102

Form: molecule = O=C(O)/C=C\c1c[nH]cn1 [cis-Urocanic acid] ; cell viability = 101

Value of measured cell viability for the entry `O=C(N/N=C/c1ccc(O)c(O)c1)c1cc2ccccc2cc1O` : 103

get_value(item= `C=CCN(C)CCCCCCOc1ccc(C(=O)c2ccc(Br)cc2)c(F)c1` , readout=cell viability) returns 94.6

Data point: O=c1[nH]c2ccccc2n1C1CCN(CCCC(c2ccc(F)cc2)c2ccc(F)cc2)CC1 [pimozide] ; cell viability = 94.2

Per the records, this molecule ( `O=C(NCc1cccc(O)c1)Nc1nc(-c2ccncc2)cs1` ) has cell viability equal to 76.1

// field: cell viability; key: `CN1CCC(=C2c3ccccc3CCc3sccc32)CC1` ; value = 100

Input CC(C)(C)NCC(O)c1cc(O)cc(O)c1 (centres undefined) [TERBUTALINE HEMISULFATE] . Output cell viability: 105

// recorded cell viability for C[N+](C)(C)CC[N+]1(C)Cc2c(Cl)c(Cl)c(Cl)c(Cl)c2C1 [chlorisondamine-diiodide] : 97.4

For reference, reported cell viability for S=C(S)OC1CC2CC1C1CCCC21 (centres undefined) stands at 96

Please fill in: cell viability reported for `O=C(O)c1ccccc1Nc1cc(Cl)ccc1C(=O)O` = 87.4

Short answer for `c1ccc2c(c1)CCCc1cc(NCCN3CCOCC3)nnc1-2` : cell viability was 104

Measured cell viability, `O=C(O)c1cn(C2CC2)c2cc(N3CCNCC3)c(F)cc2c1=O` : 91.8

For reference, reported cell viability for `COc1ccc(CNC(=O)/C=C/c2ccc3[nH]cc(CCN(C)C)c3c2)cc1` stands at 101

Recorded result, `C[C@@H](CN1CCC(Cc2ccccc2)CC1)[C@@H](O)c1ccc(O)cc1` , cell viability: 107
